B1: TPR t1 (parent)
chain: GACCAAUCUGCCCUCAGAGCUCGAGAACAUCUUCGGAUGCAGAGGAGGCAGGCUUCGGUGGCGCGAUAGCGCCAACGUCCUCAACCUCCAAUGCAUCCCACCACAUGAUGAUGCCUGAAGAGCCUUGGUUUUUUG

variants of: B1; assay: polymerase ribozyme fitness, log enrichment relative to wild type (log ratio); higher = more active; in vitro selection for triplet polymerase activity
metric: polymerase ribozyme fitness (log ratio)

sequencechange="C56U G93A C97U U129A" metric="polymerase ribozyme fitness (log ratio)" measuredresult=-2.25
sequencechange="G42A C79G G113A" metric="polymerase ribozyme fitness (log ratio)" measuredresult=-4.19
sequencechange="C12U C22G G45A G71A C94U C99U" metric="polymerase ribozyme fitness (log ratio)" measuredresult=-4.76
sequencechange="G60U C62G A83C" metric="polymerase ribozyme fitness (log ratio)" measuredresult=-0.657
sequencechange="C11A C89U G135U" metric="polymerase ribozyme fitness (log ratio)" measuredresult=-2.46
sequencechange="C20U A43G C62U U112C" metric="polymerase ribozyme fitness (log ratio)" measuredresult=-1.04
sequencechange="A37U A83U U106A" metric="polymerase ribozyme fitness (log ratio)" measuredresult=0.192
sequencechange="U9G G10U" metric="polymerase ribozyme fitness (log ratio)" measuredresult=0.261
sequencechange="C11A G69U C70U" metric="polymerase ribozyme fitness (log ratio)" measuredresult=-2.77
sequencechange="G57C G63A A100U U112C U125C" metric="polymerase ribozyme fitness (log ratio)" measuredresult=-0.23
sequencechange="C15A G63U C72U U129G U131C" metric="polymerase ribozyme fitness (log ratio)" measuredresult=-4.85
sequencechange="G47A U55A" metric="polymerase ribozyme fitness (log ratio)" measuredresult=-0.45
sequencechange="C8U G57U U112A" metric="polymerase ribozyme fitness (log ratio)" measuredresult=1.64
sequencechange="U55A C73A" metric="polymerase ribozyme fitness (log ratio)" measuredresult=0.5
sequencechange="A46U C76G" metric="polymerase ribozyme fitness (log ratio)" measuredresult=-1.01
sequencechange="C3U A26U C49U A118U" metric="polymerase ribozyme fitness (log ratio)" measuredresult=-3.26
sequencechange="G45C U55C A119U" metric="polymerase ribozyme fitness (log ratio)" measuredresult=-2.39
sequencechange="G71U A121U" metric="polymerase ribozyme fitness (log ratio)" measuredresult=2.07
sequencechange="A46C C53A G77U" metric="polymerase ribozyme fitness (log ratio)" measuredresult=-0.585
sequencechange="G25A C72A C86G" metric="polymerase ribozyme fitness (log ratio)" measuredresult=-6.66
sequencechange="C4A G63A" metric="polymerase ribozyme fitness (log ratio)" measuredresult=-1.65
sequencechange="A50G C88A C97G" metric="polymerase ribozyme fitness (log ratio)" measuredresult=-4.42
